Readings of pIC50 for the listed compounds
molecular target: Poly [ADP-ribose] polymerase 1 (Homo sapiens)
Sequence (P09874 whole entry): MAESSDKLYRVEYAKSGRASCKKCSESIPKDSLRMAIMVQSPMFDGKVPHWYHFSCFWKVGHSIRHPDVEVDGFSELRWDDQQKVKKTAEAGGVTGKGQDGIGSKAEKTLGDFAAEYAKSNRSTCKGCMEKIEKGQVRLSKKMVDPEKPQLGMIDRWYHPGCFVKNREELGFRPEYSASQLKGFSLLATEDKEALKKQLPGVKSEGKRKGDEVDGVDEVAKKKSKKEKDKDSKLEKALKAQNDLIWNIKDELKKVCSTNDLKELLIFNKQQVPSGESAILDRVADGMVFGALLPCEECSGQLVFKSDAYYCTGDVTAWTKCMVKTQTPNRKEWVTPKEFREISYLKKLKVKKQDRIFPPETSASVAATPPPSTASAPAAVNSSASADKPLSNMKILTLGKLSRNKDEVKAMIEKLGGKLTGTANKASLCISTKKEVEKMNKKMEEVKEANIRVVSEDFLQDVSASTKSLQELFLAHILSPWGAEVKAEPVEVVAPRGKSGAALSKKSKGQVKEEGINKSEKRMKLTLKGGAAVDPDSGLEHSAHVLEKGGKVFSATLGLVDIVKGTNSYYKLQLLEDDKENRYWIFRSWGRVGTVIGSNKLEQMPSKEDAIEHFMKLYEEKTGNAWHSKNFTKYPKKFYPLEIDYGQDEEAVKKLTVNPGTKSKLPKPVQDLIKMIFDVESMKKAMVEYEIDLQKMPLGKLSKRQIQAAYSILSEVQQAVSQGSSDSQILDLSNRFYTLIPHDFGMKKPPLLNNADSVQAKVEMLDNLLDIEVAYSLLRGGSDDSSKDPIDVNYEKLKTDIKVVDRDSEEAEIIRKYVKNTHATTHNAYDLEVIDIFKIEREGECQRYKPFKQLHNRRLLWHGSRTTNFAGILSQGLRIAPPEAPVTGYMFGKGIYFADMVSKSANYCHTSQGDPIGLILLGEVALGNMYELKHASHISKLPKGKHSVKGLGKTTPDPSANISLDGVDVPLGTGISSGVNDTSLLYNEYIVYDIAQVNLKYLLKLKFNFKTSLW
Scale note: pIC50 = -log10(concentration in M).

# example entries with known answers
{"columns": ["structure smiles string", "pIC50"],
 "data": [
  ["Cc1c2ccc(N(C)c3ccnc(Nc4ccc(-c5nc6cc(F)c(F)cc6[nH]5)c(Cl)c4)n3)cc2nn1C", 6.12],
  ["COc1ccc(-c2nc3c(C(N)=O)cccc3[nH]2)cc1Nc1nccc(N(C)c2ccc3c(C)n(C)nc3c2)n1", 7.40]
]}

Lookup: Return the recorded pIC50 value; entry: `Cc1c2ccc(N(C)c3ccnc(Nc4ccc(C(=O)Nc5nc6c(C(N)=O)cccc6[nH]5)c(C(F)(F)F)c4)n3)cc2nn1C`
Found: 6.46
